The reported numbers originate from PubChem BioAssay (NCI).

The compounds listed here are annotated with their TGI.
System: LOX IMVI melanoma
method.summary: NCI tumour cell line growth inhibition, 48 h

compound: Cc1nn(CN2CCN(C)CC2)c(=S)n1/N=C/c1ccc(-c2ccc(Cl)cc2Cl)o1
system.under.test: LOX IMVI melanoma
TGI: > 100 µM
//
compound: COC(=O)CC(=O)OC
system.under.test: LOX IMVI melanoma
TGI: > 100 µM
//
compound: O=c1[nH]c2ccccc2c(O)c1/C=N/C(=S)NCCc1ccccc1
system.under.test: LOX IMVI melanoma
TGI: > 100 µM
//
compound: S=C1Cc2cc3ccccc3nc2-c2ccccc2N1
system.under.test: LOX IMVI melanoma
TGI: > 69.8 µM
//
compound: C=Cc1ccccc1C1C(C(=O)OCC)=C(C)N=C2OC(C(=O)OC)C(=O)N21 (stereo unspecified)
system.under.test: LOX IMVI melanoma
TGI: > 100 µM
//
compound: O=C1CCC[C@]2(CCCC(=O)N2)C1
system.under.test: LOX IMVI melanoma
TGI: > 100 µM
//
compound: O=c1oc2ccccc2c(O)c1/C=N\c1nc(-c2ccc(O)c(O)c2)cs1
system.under.test: LOX IMVI melanoma
TGI: 14.7 µM
//
compound: COc1ccc2cc(C(=O)NCCCNC(=O)c3ccc4c(OC)c(OC)ccc4c3)ccc2c1OC
system.under.test: LOX IMVI melanoma
TGI: > 100 µM
//
compound: Cc1cnc(NC2CCOCC2)nc1-n1cnc(C(=O)N[C@H](CN)c2cc(F)cc(Cl)c2)c1
system.under.test: LOX IMVI melanoma
TGI: 5.88 µM
//
compound: Nc1nnnn1NC(=O)NCCCl
system.under.test: LOX IMVI melanoma
TGI: > 10 µM
//
compound: Cc1cc(NS(=O)(=O)c2ccc(NC(=O)c3ccc(Cl)c4c(Nc5ccc(S(N)(=O)=O)cc5)c5ccccc5nc34)cc2)no1
system.under.test: LOX IMVI melanoma
TGI: 29.7 µM
//
compound: CNCCC/C=C1\c2cc3c(cc2-c2c1c1cc(OC)c(OC)cc1c(=O)n2C)OCO3
system.under.test: LOX IMVI melanoma
TGI: 1.74 µM
//
compound: S=c1[nH]nc(C23CC4CC(CC(C4)C2)C3)n1-c1ccc(Cl)cc1
system.under.test: LOX IMVI melanoma
TGI: 17 µM
//
compound: COC(=O)CCC1=C(C)C(C)=N/C1=C\c1[nH]c(-c2ccc[nH]2)cc1OC
system.under.test: LOX IMVI melanoma
TGI: 0.609 µM
//
compound: COC(=O)[C@]12CC[C@@H](C(=O)/C=C/c3cccnc3)[C@@H]1[C@H]1CC[C@@H]3[C@@]4(C)C/C(=C/c5cccnc5)C(=O)C(C)(C)[C@@H]4CC[C@@]3(C)[C@]1(C)CC2
system.under.test: LOX IMVI melanoma
TGI: 0.442 µM
//
compound: COc1ccc2nc3n(c2c1)C(c1c(F)cccc1Cl)SC3 (stereo unspecified)
system.under.test: LOX IMVI melanoma
TGI: > 100 µM
//
compound: COc1ccc(NC=O)c(C(=O)CCNC(C)=O)c1
system.under.test: LOX IMVI melanoma
TGI: > 100 µM
//
compound: CCC1(CN(C)C)CC/C(=C\c2ccc(OC)cc2)C1=O (stereo unspecified)
system.under.test: LOX IMVI melanoma
TGI: > 100 µM
//
compound: O=C(O)CCC[C@]1(O)O[C@@]2(CCCC2=O)[C@]2(O)CCC[C@@]21O
system.under.test: LOX IMVI melanoma
TGI: > 100 µM
//
compound: Cc1ccc2cc3cccc(C(=O)NCCN(C)C)c3nc2c1
system.under.test: LOX IMVI melanoma
TGI: 6.08 µM
//
compound: CC(C)CNC(=O)c1ccc(NC(=O)N(CC(C)C)C(=O)c2ccc(N)c(OCCCN)c2)c(OCCCN=C(N)N)c1
system.under.test: LOX IMVI melanoma
TGI: > 62.5 µM
